Experiment: CREB reporter modulators under forskolin, primary screen, cell-based, PC12, CRE-LacZ reporter, forskolin-stimulated (AID 1146);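 note: PC12 cells with 6xCRE LacZ reporter stimulated by forskolin 10 µM; beta-galactosidase reporter signal reflecting CREB driven transcription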
Conditions: luminescence, 4.5 h, higher = more signal, called active from +8 up or from −8 down
Active and inactive are the calls of the source.
Entries and their z-score

Worked examples, 4 molecules total:
CC(=O)n1cc(C(O)C2C=CC3C(=O)N(C)C(=O)C3N2Nc2ccccc2)c2ccccc21 (stereo unspecified): -0.172 (inactive)
CC(C)N1C(=O)c2ccccc2[C@](C)(C(=O)NCc2ccccc2)[C@@H]1c1ccc(CO)cc1: -0.074 (inactive)
CC(C)(C)OC(=O)CC[C@]1(C(=O)NCC(O)CO)COC(c2ccc(OCCCO)cc2)=N1 (stereo partly specified): -0.0431 (inactive)
C=CCN(Cc1ccccc1)C(=O)C(c1cccs1)N(CCOCCO)C(=O)/C=C\C(=O)O (stereo unspecified): -0.949 (inactive)

Value lookup for z-score; key = CN(C)CCCCCCNC(=O)[C@@H]1C[C@@H]2C(=O)N[C@@H](CCCCN)C(=O)N2[C@@H]1c1cccc(OCCO)c1
-0.199 (inactive)

Value lookup for z-score; key = C=CCOC(=O)[C@H]1[C@@H]2C(=O)O[C@@H](c3ccccc3)[C@@H](c3ccccc3)N2[C@@H](c2ccc(OCCOC(=O)[C@@H]3C[C@@H]4C(=O)N[C@@H](CCCCN(C)C)C(=O)N4[C@@H]3c3ccc(O)cc3)cc2)[C@]12C(=O)Nc1ccc(I)cc12
1.04 (inactive)

---

Experiment: basal RPMI8226 mitochondrial membrane potential changes, profiling panel, cell-based, JC-1 fluorescence, 24 h, 100 nL compound (AID 1169); note: test concentration not given here
Conditions: RPMI8226 myeloma, JC-1 mitochondrial potential fluorescence, higher = more signal
Entries and their z-score
Would you mind answering with just the numeric figure?

Worked examples, 2 compounds total:
CN1C(=O)C2C=CC(C(O)c3cc(C(F)(F)F)cc(C(F)(F)F)c3)N(N3CCCCC3)C2C1=O (stereo not drawn): 0.462
CC(=O)n1cc(C(O)C2C=CC3C(=O)N(C)C(=O)C3N2Nc2ccccc2)c2ccccc21 (stereo not drawn): -0.0553

Attention now turns to another entry.
Value lookup for z-score; key = COC(=O)[C@@]1(Cc2ccc(F)cc2)[C@H]2c3cc(C(=O)N(C)C)n(Cc4nc5ccccc5[nH]4)c3C[C@H]2CN1C(=O)c1ccccc1
-0.207

---

Target: Epidermal growth factor receptor (Homo sapiens) (UniProt P00533)
Sequence (P00533 whole entry, looked up): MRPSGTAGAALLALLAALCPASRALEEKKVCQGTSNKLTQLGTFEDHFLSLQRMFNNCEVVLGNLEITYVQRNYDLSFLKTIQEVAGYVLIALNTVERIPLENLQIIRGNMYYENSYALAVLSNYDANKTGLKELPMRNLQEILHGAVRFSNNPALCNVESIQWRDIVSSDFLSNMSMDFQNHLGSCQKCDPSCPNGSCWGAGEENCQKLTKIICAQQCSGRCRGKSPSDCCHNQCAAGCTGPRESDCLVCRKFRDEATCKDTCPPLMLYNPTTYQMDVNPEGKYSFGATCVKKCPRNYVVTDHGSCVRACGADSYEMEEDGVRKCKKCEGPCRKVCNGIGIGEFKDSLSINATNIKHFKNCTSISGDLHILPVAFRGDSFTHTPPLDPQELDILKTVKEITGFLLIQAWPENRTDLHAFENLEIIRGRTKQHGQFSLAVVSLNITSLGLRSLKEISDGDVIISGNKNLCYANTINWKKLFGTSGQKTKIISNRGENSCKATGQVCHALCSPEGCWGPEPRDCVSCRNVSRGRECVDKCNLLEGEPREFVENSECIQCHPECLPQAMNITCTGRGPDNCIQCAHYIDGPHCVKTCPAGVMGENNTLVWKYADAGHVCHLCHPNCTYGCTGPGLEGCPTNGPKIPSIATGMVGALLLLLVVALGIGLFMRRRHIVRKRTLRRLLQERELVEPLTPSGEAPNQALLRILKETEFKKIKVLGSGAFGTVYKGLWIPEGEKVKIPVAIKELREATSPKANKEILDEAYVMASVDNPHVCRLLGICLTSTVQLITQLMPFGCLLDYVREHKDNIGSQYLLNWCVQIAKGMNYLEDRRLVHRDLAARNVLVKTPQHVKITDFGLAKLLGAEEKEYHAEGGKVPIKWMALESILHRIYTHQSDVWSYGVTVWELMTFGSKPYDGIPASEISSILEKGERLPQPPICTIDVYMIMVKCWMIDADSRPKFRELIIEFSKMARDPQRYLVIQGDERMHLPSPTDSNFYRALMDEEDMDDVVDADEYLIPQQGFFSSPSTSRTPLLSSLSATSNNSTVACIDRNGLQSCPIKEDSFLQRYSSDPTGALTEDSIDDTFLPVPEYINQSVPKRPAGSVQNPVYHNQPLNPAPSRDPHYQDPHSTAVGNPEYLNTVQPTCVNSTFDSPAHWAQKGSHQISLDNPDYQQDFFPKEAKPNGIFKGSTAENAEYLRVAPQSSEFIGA
Assay: EGFR binders on small-molecule microarrays, primary screen, biochemical, small-molecule microarray, 635 nm fluorescence (AID 1104);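 note: score merges 667 nm emission intensity with spot signal to noise over triplicate slides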
Conditions: EGFR binding, higher = more signal
If the reported composite z-score equals or exceeds -0.02, assign 1 (yes). If not, assign 0 (no).

Field: example entries. Status: answers known.
COC(=O)[C@@]1(Cc2ccc(F)cc2)[C@@H]2[C@@H](CC(=O)[C@H]2CC(=O)C(=O)N(C)C)CN1C(=O)c1ccccc1: 1 (yes)
CC(=O)n1cc(C(O)C2C=CC3C(=O)N(C)C(=O)C3N2Nc2ccccc2)c2ccccc21 (configuration not stated): 1 (yes)
C[N+](C)(C)CCCC[C@@H]1NC(=O)[C@@H]2C[C@H](C(=O)NCCCCCN)[C@H](c3cccc(OCCO)c3)N2C1=O: 0 (no)
CCCC=C(CCC)[C@@H](NC(=O)Oc1ccc(F)cc1)c1ccc(C(=O)OC)cc1: 1 (yes)
C=CCNC(=O)[C@@H]1[C@H]2C(=O)O[C@H](c3ccccc3)[C@H](c3ccccc3)N2[C@H](c2ccccc2OCCO)[C@@]12C(=O)N(C(=O)OCCOC)c1ccc(C#CCNC(N)=O)cc12: 1 (yes)
Cc1ccc(S[C@]2(C(=O)NC3CC3)CC(=O)N(C3Cc4ccccc4C3)[C@@H]2c2ccc(CO)cc2)cc1: 0 (no)
C=C(C)C1C(=C)CN([C@H](CO)c2ccccc2)C1=O (some centres not stated): 0 (no)
CC(C)C[C@@H]1NC(=O)[C@H]2C[C@@H](C(=O)NCCCCCCN)[C@@H](c3ccc(O)cc3)N2C1=O: 1 (yes)

Shifting focus to the compound that follows.
Can [N-]=[N+]=Nc1ccccc1[C@H]1OC(c2ccc(OCCCO)cc2)=N[C@@]1(Cc1ccccc1)C(=O)O be said to have composite z-score at or above -0.02?
1 (yes)

---

Biological target: Torsin-1A (Homo sapiens) (UniProt O14656)
Sequence (O14656 whole entry, looked up): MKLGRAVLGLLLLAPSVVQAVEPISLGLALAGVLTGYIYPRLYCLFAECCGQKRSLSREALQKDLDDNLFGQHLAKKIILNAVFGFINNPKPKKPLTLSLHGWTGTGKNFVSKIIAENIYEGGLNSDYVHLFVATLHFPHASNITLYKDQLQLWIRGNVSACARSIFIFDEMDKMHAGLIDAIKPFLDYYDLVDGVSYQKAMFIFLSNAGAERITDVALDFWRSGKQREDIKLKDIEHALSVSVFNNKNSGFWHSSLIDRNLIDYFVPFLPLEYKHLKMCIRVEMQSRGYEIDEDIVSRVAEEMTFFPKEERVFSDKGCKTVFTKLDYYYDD
Test: small-molecule binders of mutant TOR1A in lysate, primary screen, cell lysate, small-molecule microarray, COS7 lysate, 635/667 nm fluorescence (AID 1150);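 note: score pools 667 nm emission and signal to noise measuring lysate protein binding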
Conditions: COS7 hTOR1A mutant lysate, 635 nm fluorescence, higher = more signal
REPORTED_ENDPOINT: composite z-score
Would you mind answering with just the numeric figure?

O=C1O[C@H](c2ccccc2)[C@H](c2ccccc2)N2[C@H]1[C@@H](C(=O)O)[C@]1(C(=O)Nc3ccc(C#CCCO)cc31)[C@H]2c1ccc(O)cc1: 0.499

Attention now turns to another entry.
Value lookup for composite z-score; key = COc1ccc(COC2OC[C@]3(C)[C@H]4C5=C(CN3C(=O)OC(C)(C)C)[C@H](C)C(CO)C(CO)C5CC[C@@H]24)cc1 (stereo not given in full)
0.156

---

Entries and their composite z-score
Target: Fibroblast growth factor 2 (Homo sapiens)
Experiment: FGF2 binders on small-molecule microarrays, primary screen, biochemical, small-molecule microarray, 635/667 nm fluorescence (AID 1133)
Conditions: small-molecule microarray binding, FGF2, fluorescence 635/667; higher = more signal

Worked examples, 3 compounds total:
O=C1NC(=O)C2C1C=CC(C(O)c1ccccc1)N2Nc1ccc(Cl)cc1Cl (stereo not given): 0.394
O=C1O[C@H](c2ccccc2)[C@H](c2ccccc2)N2[C@H]1[C@@H](C(=O)Nc1nc3ccccc3s1)[C@]1(C(=O)Nc3ccc(C#CCCO)cc31)[C@H]2c1ccc(OCCO)cc1: 1.15
CN(C)CCCNC(=O)[C@@]1(c2ccc([N+](=O)[O-])cc2)CC(=O)N(C2CCCCC2)[C@@H]1c1ccc(CO)cc1I: 0.225

Value lookup for composite z-score; key = Cc1ccc(S[C@]2(C(=O)NCC(F)(F)F)CC(=O)N(C(C)C)[C@@H]2c2ccc(CO)cc2I)cc1
0.0888

Value lookup for composite z-score; key = C=CCNC(=O)[C@H]1[C@@H]2C(=O)O[C@@H](c3ccccc3)[C@@H](c3ccccc3)N2[C@@H](c2ccc(OCCO)cc2)[C@]12C(=O)N(C(=O)OCCOC)c1ccccc12
1.53

Value lookup for composite z-score; key = COc1ccc(CCNC(=O)[C@@]2(Sc3ccc(C)cc3)CC(=O)N(C3CCCCC3)[C@@H]2c2ccc(CO)cc2I)cc1
0.535

Value lookup for composite z-score; key = CC(C)(C)OC(=O)CC[C@]1(C(=O)NCC(O)CO)COC(c2ccc(OCCCO)cc2)=N1 (stereo not given in full)
-0.473

---

Experiment: small-molecule microarray binders of probe aNog, primary screen, biochemical, biotinylated probe, 635/667 nm fluorescence (AID 1115);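 note: probe is biotinylated aNog protein used at 0.15 µg/mL for 1 h at 4 C; z-score combines 667 nm fluorescence of each spot with its signal to noise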
Settings: higher = more signal
If the reported composite z-score equals or exceeds 0.6, assign 1.0. If not, assign 0.0.

O=C1NC(=O)C2C1C=CC(C(O)Cc1ccccc1)N2Nc1ccc(Cl)cc1Cl (stereo not given): 0.0
COc1cc2c(cc1O)C=[N+](Cc1cccc(OC(F)(F)F)c1)CC2: 0.0
COC(=O)[C@@]1(Cc2ccc(OC)cc2)[C@H]2c3cc(C(=O)N4CCCC4)n(Cc4ccsc4Br)c3C[C@H]2CN1C(=O)c1ccccc1: 1.0
COC(=O)C(CC#Cc1ccc2c(c1)[C@]1(C(=O)N2)[C@H](C(=O)O)[C@H]2C(=O)O[C@H](c3ccccc3)[C@H](c3ccccc3)N2[C@@H]1c1ccc(O)cc1)C(=O)OC: 0.0
C[C@]1(C(=O)NC2CC2)c2ccccc2C(=O)N(Cc2cc(C(F)(F)F)cc(C(F)(F)F)c2)[C@H]1c1ccc(CO)cc1: 0.0

Can COCCCNC(=O)[C@@]1(Cc2ccccc2)N=C(c2ccc(OCCCO)cc2)O[C@H]1c1ccccc1 be said to have composite z-score at or above 0.6?
0.0

Can CN1C2C=C(CCCO)C(C3C(=O)N(C(N)=O)C(=O)C32)C1c1ccc(CN2CCCC2)cc1 (stereo not given) be said to have composite z-score at or above 0.6?
0.0

Can [N-]=[N+]=NCc1ccccc1[C@@H]1OC(c2ccc(OCCCO)cc2)=N[C@]1(CCS(=O)(=O)c1ccccc1)C(=O)NCc1ccccc1 be said to have composite z-score at or above 0.6?
1.0

Can CC(C)(C)OC(=O)CC[C@@]1(C(=O)NCCN2CCOCC2)N=C(c2ccc(OCCCO)cc2)O[C@@H]1c1ccccc1N=[N+]=[N-] be said to have composite z-score at or above 0.6?
1.0

Can COC(=O)[C@@]1(Cc2ccc(OC)cc2)[C@H]2c3cc(C(=O)N(C)C)n(CCN4CNCC4=O)c3C[C@H]2CN1C(=O)c1ccccc1 be said to have composite z-score at or above 0.6?
0.0

Can O=C1NCC(=O)N2[C@@H]1C[C@@H](C(=O)O)[C@H]2c1cccc(OCCO)c1 be said to have composite z-score at or above 0.6?
1.0

Can CC(C)(C)OC(=O)CC[C@]12N=C(c3ccc(OCCCO)cc3)O[C@H]1c1ccccc1N(CCS(=O)(=O)c1ccccc1)C2=O be said to have composite z-score at or above 0.6?
0.0

Can COCCOC(=O)N1C(=O)[C@@]2(c3cc(C#CC4=CCCCC4)ccc31)[C@H](C(=O)N1CCc3cc(OC)c(OC)cc3C1)[C@H]1C(=O)O[C@H](c3ccccc3)[C@H](c3ccccc3)N1[C@@H]2c1ccc(OCCO)cc1 be said to have composite z-score at or above 0.6?
0.0

Numbers sourced from PubChem BioAssay.
